assayed target: T1, hiR2-FL-R543A-T7 (human, UniProt Q6PJF5 1-856)
T1 sequence: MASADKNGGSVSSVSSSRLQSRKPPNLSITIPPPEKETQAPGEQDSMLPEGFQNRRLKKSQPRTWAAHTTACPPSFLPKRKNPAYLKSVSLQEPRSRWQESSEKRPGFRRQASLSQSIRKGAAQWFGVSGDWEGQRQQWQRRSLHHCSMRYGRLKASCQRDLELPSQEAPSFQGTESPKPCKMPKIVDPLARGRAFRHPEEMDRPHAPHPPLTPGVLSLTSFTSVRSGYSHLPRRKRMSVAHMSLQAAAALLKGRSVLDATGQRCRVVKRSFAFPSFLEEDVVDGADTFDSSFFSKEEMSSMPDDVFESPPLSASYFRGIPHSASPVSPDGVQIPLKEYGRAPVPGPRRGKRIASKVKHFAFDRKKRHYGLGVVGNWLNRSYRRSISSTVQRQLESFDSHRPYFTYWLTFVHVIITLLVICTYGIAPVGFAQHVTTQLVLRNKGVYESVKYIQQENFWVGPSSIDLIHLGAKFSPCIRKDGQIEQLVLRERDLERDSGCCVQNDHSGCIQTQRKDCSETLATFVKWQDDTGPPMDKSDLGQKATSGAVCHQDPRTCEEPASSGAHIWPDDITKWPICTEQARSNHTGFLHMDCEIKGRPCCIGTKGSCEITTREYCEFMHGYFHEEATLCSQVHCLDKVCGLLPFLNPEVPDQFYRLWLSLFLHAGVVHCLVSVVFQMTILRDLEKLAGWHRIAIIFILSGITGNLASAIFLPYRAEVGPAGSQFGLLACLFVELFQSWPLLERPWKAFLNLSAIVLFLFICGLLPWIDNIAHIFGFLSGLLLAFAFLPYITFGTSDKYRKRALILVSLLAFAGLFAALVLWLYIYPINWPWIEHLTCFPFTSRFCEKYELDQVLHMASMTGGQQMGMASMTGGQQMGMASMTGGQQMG
test details: FACS on MEF-DKO cells expressing the variant, 3 µg/ml antibody
Listing of entries alongside the reported loss of binding vs wild type.
observable: loss of binding vs wild type

[
  {
    "binder": "antibody 3 (antibody, V domains shown, mouse IgG, kappa light chain; also called clone #3; purified antibody 3) VH: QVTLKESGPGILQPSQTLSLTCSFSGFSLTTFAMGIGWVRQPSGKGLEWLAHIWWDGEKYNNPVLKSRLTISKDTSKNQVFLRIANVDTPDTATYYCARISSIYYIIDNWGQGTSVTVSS VL: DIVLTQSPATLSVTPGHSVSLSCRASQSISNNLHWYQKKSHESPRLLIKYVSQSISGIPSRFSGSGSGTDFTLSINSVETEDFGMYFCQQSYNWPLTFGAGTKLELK",
    "observable": "loss of binding vs wild type",
    "meas value": "≥ 30%"
  },
  {
    "binder": "antibody 22 (antibody, V domains shown, mouse IgG, kappa light chain; also called clone #22; purified antibody 22) VH: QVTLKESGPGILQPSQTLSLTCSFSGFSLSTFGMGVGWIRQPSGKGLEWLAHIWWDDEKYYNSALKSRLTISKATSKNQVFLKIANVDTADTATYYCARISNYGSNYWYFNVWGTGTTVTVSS VL: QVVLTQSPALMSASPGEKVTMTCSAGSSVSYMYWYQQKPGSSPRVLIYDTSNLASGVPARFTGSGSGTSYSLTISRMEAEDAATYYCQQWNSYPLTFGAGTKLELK",
    "observable": "loss of binding vs wild type",
    "meas value": "≥ 60%"
  },
  {
    "binder": "antibody 34 (antibody, V domains shown, mouse IgG, kappa light chain; also called clone #34; purified antibody 34) VH: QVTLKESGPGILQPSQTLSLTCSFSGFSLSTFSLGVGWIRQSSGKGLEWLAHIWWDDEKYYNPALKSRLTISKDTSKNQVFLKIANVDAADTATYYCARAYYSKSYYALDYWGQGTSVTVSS VL: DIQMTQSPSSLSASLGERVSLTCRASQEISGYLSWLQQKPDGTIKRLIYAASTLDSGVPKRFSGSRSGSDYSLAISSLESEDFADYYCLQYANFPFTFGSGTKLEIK",
    "observable": "loss of binding vs wild type",
    "meas value": "≥ 95%"
  },
  {
    "binder": "antibody 44 (antibody, V domains shown, mouse IgG, kappa light chain; also called clone #44; purified antibody 44) VH: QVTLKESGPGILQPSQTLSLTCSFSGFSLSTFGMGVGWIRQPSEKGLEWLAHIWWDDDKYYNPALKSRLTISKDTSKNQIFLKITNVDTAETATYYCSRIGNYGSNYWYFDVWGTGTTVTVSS VL: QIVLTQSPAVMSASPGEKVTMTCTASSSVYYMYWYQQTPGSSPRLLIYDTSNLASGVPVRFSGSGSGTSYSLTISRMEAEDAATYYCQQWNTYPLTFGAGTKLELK",
    "observable": "loss of binding vs wild type",
    "meas value": "≥ 95%"
  }
]
